src = the supplement of paper PMC12669032

test system: Fusobacterium nucleatum subsp. animalis; assay: growth AUC relative to DMSO control (median of replicates) (fraction); higher = more growth (less inhibition), active = hit call of the paper; details: 20 µM; 24 h
QUANTITY MEASURED: growth AUC

INSERT INTO measurements (compound, endpoint_value) VALUES
  ('CCC(C)(C)c1ccc(O)cc1', '1 (inactive)'),
  ('CCC(C)c1ccccc1OC(=O)NC (stereo unspecified)', '0.998 (inactive)');

Reported growth AUC of CON(C)C(=O)Nc1ccc(Br)c(Cl)c1 : 0.886 (inactive)

The measured growth AUC associated with CC1(C)[C@H](C(=O)O[C@H](C#N)c2cccc(Oc3ccccc3)c2)[C@@H]1/C=C\C(=O)OC(C(F)(F)F)C(F)(F)F reads 0.986 (inactive)

For reference, reported growth AUC for O=C(O)c1ccc(=O)[nH]c1 stands at 0.982 (inactive)

The compound listed as CC(C)(C)c1ccc(CSc2cnn(C(C)(C)C)c(=O)c2Cl)cc1 has a reported growth AUC of 1.05 (inactive)

Consider COC(=O)c1ccccc1S(=O)(=O)NC(=O)Nc1nc(C)nc(OC)n1 . Its measured growth AUC is 0.913 (inactive)

growth AUC recorded for this compound, CS(=O)(=O)c1ccc(C(=O)C2C(=O)CCCC2=O)c([N+](=O)[O-])c1 , is 0.97 (inactive)

For record CC(Cc1ccc(C(C)(C)C)cc1)CN1CCCCC1 (stereo unspecified) the listed growth AUC is 1.02 (inactive)

Noted for CNC(=O)/C=C(\C)OP(=O)(OC)OC : its growth AUC reads 1.02 (inactive)

The compound listed as CCOP(=S)(OCC)SCS(=O)C(C)(C)C (stereo unspecified) shows growth AUC equal to 1.07 (inactive)

###

tested on: Roseburia intestinalis; test: growth AUC relative to DMSO control (median of replicates) (fraction); higher = more growth (less inhibition), active = hit call of the paper; settings: 20 µM; 24 h;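 active = AUC reduced over 20% with Padj below 0.05 in at least 2 of 3 replicates; inactive = otherwise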
Returns: one label drawn from 1 for active, -1 for inactive

// below: answered compounds
INSERT INTO assay_data (compound, assigned_label) VALUES
  ('COCCOC(=O)C(C#N)(C(=O)c1ccccc1C(F)(F)F)c1ccc(C(C)(C)C)cc1 (stereo not drawn)', -1),
  ('CCCN(CCC)C(=O)SCc1ccccc1', -1),
  ('CCCC1COC(Cn2cncn2)(c2ccc(Cl)cc2Cl)O1 (stereo not drawn)', -1),
  ('Clc1cc(Cl)nc(-c2ccccc2)n1', -1),
  ('CC1(C)C(/C=C(\Cl)c2ccc(Cl)cc2)C1C(=O)OC(C#N)c1ccc(F)c(Oc2ccccc2)c1 (stereo not drawn)', -1);

Request: Entry CCCN(CCC)c1c([N+](=O)[O-])cc(S(N)(=O)=O)cc1[N+](=O)[O-] : call = ?
Result: -1

Request: Query: recorded result category for CNC(=O)Oc1ccccc1OC(CCl)OC (stereo not drawn) in this test
Result: -1

Request: Called result for CN(C)NC(=O)CCC(=O)O
Result: -1

###

tested on: Parabacteroides merdae; assay: growth AUC relative to DMSO control (median of replicates) (fraction); higher = more growth (less inhibition), active = hit call of the paper; settings: 20 µM; 24 h
If the reported growth AUC equals or exceeds 1, assign y. If not, assign n.

INSERT INTO assay_data (compound, assigned_label) VALUES
  ('CCN(CC)c1nc(C)cc(OP(=S)(OC)OC)n1', 'n'),
  ('N#Cc1cc(Br)c(O)c(Br)c1', 'n');

Request: Evaluate CCOP(=O)(NC(C)C)Oc1ccc(S(C)(=O)=O)c(C)c1 (centres undefined) : growth AUC at minimum 1?
Result: y

Request: Could you tell me if the measured growth AUC of CCOC(=O)c1ccccc1S(=O)(=O)NC(=O)Nc1nc(Cl)cc(OC)n1 reaches 1 or more?
Result: y

Request: Decide: is the reported value of growth AUC for COC(=O)C(C)(Cl)Cl equal to or greater than 1?
Result: y
